- testTarget: A*0203 (Homo sapiens, UniProt P04439, A173T/D140Y/D185E/D98H/E277Q/G131W/G231S/I119V/I121R/I166T/I218V/L180W/L300P/L318F/N151K/N90K/P208A/P217A/Q86G/Q94H/R138H/R169H/T345S)
- assayProcedure: biochemical
- Assay type: binding
No end group written: not given here.
measuredMetric: pIC50
Numbers only, as −log10 of the molar value.

Guide cases for pIC50, answers given:
RLQLSNGNRTV [Peptide 9013.0328] : 7.24
SLLTFWNPPV [Peptide 9013.0118] : 6.80
VLAEAMSHT [Peptide 1539.06] : 8.12
YIDDYLRNL [Peptide 1578.39] : 6.42
ALYWYRTGI [Peptide 86.0181] : 7.19

Report pIC50 for each item below.
1. MTRNPPVPV [Peptide 1539.02]
2. TLNNSGSYT [Peptide 9013.0065]
3. VLEGKEVLLLV [Peptide 9013.0273]
4. LLTFWNPPTTV [Peptide 9013.0259]
5. EVQNTTYLWWV [Peptide 9013.0326]
6. TLVTTITVYA [Peptide 9013.0193]
7. HLQVLFIAKI [Peptide 9013.0244]
8. TILQQLLFI [Peptide 1525.26]

A.
1: 7.46; 2: 6.63; 3: 6.57; 4: 7.24; 5: 4.71; 6: 7.24; 7: 7.54; 8: 6.44
